Measured values drawn from patent US20230115176A1 for this set.

TARGET: Human C5 (Homo sapiens, UniProt P01031)
Construct: purchased Complement Technology
Sequence (P01031 19-1676): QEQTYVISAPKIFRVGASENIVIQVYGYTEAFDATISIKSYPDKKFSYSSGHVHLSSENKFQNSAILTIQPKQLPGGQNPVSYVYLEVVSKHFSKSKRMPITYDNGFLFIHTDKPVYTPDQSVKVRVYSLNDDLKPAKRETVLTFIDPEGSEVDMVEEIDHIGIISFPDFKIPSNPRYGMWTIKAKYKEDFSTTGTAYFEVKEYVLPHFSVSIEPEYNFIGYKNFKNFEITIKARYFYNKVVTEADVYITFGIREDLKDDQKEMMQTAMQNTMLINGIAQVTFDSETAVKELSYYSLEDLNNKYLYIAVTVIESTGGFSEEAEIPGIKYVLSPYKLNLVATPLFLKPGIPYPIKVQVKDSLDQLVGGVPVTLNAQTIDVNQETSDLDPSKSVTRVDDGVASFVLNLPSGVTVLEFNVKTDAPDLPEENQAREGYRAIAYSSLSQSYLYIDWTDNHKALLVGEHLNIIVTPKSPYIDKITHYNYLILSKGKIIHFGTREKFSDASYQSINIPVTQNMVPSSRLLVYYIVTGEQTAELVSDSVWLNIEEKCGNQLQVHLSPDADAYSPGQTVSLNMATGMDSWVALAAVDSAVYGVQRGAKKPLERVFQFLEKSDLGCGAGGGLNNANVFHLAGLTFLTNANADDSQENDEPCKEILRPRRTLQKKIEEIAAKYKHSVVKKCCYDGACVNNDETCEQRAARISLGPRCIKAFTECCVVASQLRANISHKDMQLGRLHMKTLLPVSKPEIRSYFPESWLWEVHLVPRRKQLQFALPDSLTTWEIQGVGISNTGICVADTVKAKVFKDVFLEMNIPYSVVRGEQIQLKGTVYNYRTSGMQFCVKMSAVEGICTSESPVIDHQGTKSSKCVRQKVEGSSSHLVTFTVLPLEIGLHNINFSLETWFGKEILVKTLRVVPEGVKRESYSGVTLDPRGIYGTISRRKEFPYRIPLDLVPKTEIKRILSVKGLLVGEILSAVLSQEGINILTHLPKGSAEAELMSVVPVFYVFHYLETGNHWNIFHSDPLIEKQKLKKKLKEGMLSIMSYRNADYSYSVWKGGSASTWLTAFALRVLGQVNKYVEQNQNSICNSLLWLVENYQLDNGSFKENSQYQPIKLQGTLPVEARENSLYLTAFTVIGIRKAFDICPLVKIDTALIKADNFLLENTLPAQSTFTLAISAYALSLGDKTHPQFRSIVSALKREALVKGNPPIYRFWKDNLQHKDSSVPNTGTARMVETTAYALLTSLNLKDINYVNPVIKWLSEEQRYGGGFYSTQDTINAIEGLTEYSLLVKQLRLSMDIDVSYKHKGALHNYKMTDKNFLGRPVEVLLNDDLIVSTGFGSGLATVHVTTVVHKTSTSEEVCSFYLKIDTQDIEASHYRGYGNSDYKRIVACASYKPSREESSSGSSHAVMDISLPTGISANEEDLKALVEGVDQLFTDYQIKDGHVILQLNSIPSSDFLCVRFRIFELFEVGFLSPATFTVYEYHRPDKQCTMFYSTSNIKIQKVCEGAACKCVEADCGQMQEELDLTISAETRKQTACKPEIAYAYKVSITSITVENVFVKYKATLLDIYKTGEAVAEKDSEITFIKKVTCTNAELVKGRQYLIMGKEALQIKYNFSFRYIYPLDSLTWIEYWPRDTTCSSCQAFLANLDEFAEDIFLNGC
EXPERIMENT SUMMARY: Red blood cell (RBC) hemolysis assay, luminescent (Example 24, Table 29)
Format: cell-based
CONDITION NOTES: sheep EA cells, […] C5-depleted human serum, 0.5 nM human C5, 1 hour at 37° C., luminescence (Table 29)
pIC50: −log10 of the molar value.
# maps each entry to its pIC50
OBSERVED PROPERTY: pIC50

molecule=CCCCCOc1cc(N2CC[C@H](C)N(Cc3cccc4c3ccn4CC(=O)N(C)c3cccnc3)C2=O)ccc1OC target="Human C5 (Homo sapiens, UniProt P01031)" quantitative_readout=7.60
molecule="CCCCCOc1cc(N2CC(CN)CN(Cc3cc(F)ccc3OC)C2=O)ccc1OC (centres unmarked)" target="Human C5 (Homo sapiens, UniProt P01031)" quantitative_readout=6.94
molecule=CCCCCOc1cc(N2CC[C@H](C)N(Cc3cccc4c3ccn4CC(=O)N3CCOCC3)C2=O)ccc1OC target="Human C5 (Homo sapiens, UniProt P01031)" quantitative_readout=7.55
molecule="CCCCCOc1cc(N2CC(Cn3cc(CO)nn3)CN(Cc3cc(F)ccc3OC)C2=O)ccc1OC (centres unmarked)" target="Human C5 (Homo sapiens, UniProt P01031)" quantitative_readout=6.68
molecule=CCCCCOc1cc(N2CC[C@H](C)N(Cc3cccc4c3ccn4CC(=O)N3CCO[C@@H](COC)C3)C2=O)ccc1OC target="Human C5 (Homo sapiens, UniProt P01031)" quantitative_readout=7.73
molecule=CCCCCOc1cc(N2CC[C@@H](C)N(Cc3ccnc4[nH]ccc34)C2=O)ccc1OC target="Human C5 (Homo sapiens, UniProt P01031)" quantitative_readout=6.65
molecule="CCCCCOc1cc(N2CC(C(=O)N(C)CCO)CN(Cc3cc(F)ccc3OC)C2=O)ccc1OC (centres unmarked)" target="Human C5 (Homo sapiens, UniProt P01031)" quantitative_readout=7.17
molecule="CCCCCOc1cc(N2CC(CO)CN(Cc3cc(F)ccc3OC)C2=O)ccc1OC (centres unmarked) [SC0016(1)]" target="Human C5 (Homo sapiens, UniProt P01031)" quantitative_readout=8.08
molecule="CCCCCOc1cc(N2CC(C(N)=O)CN(Cc3cc(F)ccc3OC)C2=O)ccc1OC (centres unmarked)" target="Human C5 (Homo sapiens, UniProt P01031)" quantitative_readout=7.83
molecule="CCCCCOc1cc(N2CC(C(=O)N3CCS(=O)(=O)C3)CN(Cc3cc(F)ccc3OC)C2=O)ccc1OC (centres unmarked)" target="Human C5 (Homo sapiens, UniProt P01031)" quantitative_readout=7.61
molecule="CCCCCOc1cc(N2CC(C(=O)NCCOC)CN(Cc3cc(F)ccc3OC)C2=O)ccc1OC (centres unmarked)" target="Human C5 (Homo sapiens, UniProt P01031)" quantitative_readout=7.44
molecule="CCCCCOc1cc(N2CC(Cn3ncc4ccccc43)CN(Cc3cc(F)ccc3OC)C2=O)ccc1OC (centres unmarked)" target="Human C5 (Homo sapiens, UniProt P01031)" quantitative_readout=6.47
molecule="CCCCCOc1cc(N2CC(CNC(=O)C(=O)N(C)C)CN(Cc3cc(F)ccc3OC)C2=O)ccc1OC (centres unmarked)" target="Human C5 (Homo sapiens, UniProt P01031)" quantitative_readout=7.42
molecule=CCCCCOc1cc(N2CC[C@@H](C)N(Cc3cccc4c3ccn4CC(=O)N(C)C)C2=O)ccc1OC target="Human C5 (Homo sapiens, UniProt P01031)" quantitative_readout=6.84
molecule=CCCCCOc1cc(N2CC3(CN(C(=O)OCC)C3)CN(Cc3cc(F)ccc3OC)C2=O)ccc1OC target="Human C5 (Homo sapiens, UniProt P01031)" quantitative_readout=7.23
molecule=CCCCCOc1cc(N2CC[C@H](C)N(Cc3cccc4c3ccn4CC(=O)N3CCO[C@H](COC)C3)C2=O)ccc1OC target="Human C5 (Homo sapiens, UniProt P01031)" quantitative_readout=8.06
molecule="CCCCCOc1cc(N2CC(CNC(=O)C(F)(F)F)CN(Cc3cc(F)ccc3OC)C2=O)ccc1OC (centres unmarked)" target="Human C5 (Homo sapiens, UniProt P01031)" quantitative_readout=6.91
molecule="CCCCCOc1cc(N2CC(C(=O)O)CN(Cc3cc(F)ccc3OC)C2=O)ccc1OC (centres unmarked)" target="Human C5 (Homo sapiens, UniProt P01031)" quantitative_readout=7.24
molecule=CCCCCOc1cc(N2CC[C@H](C)N(Cc3cccc4c3ccn4CC(=O)N3CCCOCC3)C2=O)ccc1OC target="Human C5 (Homo sapiens, UniProt P01031)" quantitative_readout=7.98
molecule="CCCCCOc1cc(N2CC(C)CN(Cc3ccc(CC(=O)O)cc3OC)C2=O)ccc1OC (centres unmarked)" target="Human C5 (Homo sapiens, UniProt P01031)" quantitative_readout=7.25
